target: serotonin transporter (Rattus norvegicus, UniProt P31652); construct: using synaptosomes prepared from rat midbrain and parietal/occipital cortex, respectively; from tissue; host or cells: rat midbrain synaptosomes; experiment: Synaptosomal uptake of [3H]5-HT; format: biochemical; settings: Ki (nM) SER, synaptosomes from rat midbrain; mean ± standard error or range of 2-3 experiments
Sequence (P31652 whole entry): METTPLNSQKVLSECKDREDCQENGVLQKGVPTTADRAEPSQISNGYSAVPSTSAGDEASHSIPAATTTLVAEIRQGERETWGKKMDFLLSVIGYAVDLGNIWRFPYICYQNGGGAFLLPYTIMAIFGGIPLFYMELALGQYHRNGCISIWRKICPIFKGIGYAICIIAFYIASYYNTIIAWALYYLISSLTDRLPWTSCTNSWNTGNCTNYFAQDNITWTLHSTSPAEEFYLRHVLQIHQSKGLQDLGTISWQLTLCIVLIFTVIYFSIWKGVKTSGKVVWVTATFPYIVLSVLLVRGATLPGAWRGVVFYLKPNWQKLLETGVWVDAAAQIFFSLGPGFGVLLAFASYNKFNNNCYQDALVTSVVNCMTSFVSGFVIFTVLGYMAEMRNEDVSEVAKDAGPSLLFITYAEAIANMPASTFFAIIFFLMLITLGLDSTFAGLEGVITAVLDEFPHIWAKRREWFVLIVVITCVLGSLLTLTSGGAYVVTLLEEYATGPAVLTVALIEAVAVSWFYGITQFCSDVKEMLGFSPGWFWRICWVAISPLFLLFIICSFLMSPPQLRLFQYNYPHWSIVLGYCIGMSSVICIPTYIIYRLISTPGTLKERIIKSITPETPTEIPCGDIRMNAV
Readings of Ki for the listed molecules
Expressed in nM, but write only the number.

>  <Molecule>
CCCCC1C(c2ccc(C)cc2)C2CCN1CC2 (single isomer, unassigned; (-)) [(−)-13, 2-Butyl-3-(4-methylphenyl)quinuclidine]

>  <Ki [nM]>
26

$$$$

Let us move to another entry and its Ki.
Looking up CCCCC1C(c2ccc(C)cc2)C2CCN1CC2 (racemic) [(±)-13, 2-Butyl-3-(4-methylphenyl)quinuclidine] , I found its Ki recorded as 77
